- Tested target: UniProt:P04150
- Sequence (P04150 whole entry): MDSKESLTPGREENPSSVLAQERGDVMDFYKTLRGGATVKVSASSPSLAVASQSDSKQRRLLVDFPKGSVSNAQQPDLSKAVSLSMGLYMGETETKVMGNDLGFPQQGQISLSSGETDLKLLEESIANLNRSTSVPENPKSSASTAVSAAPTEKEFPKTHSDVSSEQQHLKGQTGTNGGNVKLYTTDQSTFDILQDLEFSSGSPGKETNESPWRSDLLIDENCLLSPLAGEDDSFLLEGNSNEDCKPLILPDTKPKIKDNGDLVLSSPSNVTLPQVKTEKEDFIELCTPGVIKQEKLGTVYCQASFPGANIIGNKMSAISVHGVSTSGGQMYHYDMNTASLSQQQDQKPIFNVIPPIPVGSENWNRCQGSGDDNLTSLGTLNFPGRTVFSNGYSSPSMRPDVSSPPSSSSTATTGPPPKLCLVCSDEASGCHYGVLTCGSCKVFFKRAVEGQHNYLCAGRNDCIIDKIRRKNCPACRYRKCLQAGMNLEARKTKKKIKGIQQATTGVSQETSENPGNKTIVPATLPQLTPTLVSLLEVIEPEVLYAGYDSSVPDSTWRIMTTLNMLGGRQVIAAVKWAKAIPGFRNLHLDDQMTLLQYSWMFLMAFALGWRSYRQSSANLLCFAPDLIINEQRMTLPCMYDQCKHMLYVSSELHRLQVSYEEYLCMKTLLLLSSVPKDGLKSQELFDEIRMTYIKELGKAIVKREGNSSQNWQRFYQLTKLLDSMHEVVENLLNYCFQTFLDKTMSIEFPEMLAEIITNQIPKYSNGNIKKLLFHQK
- Protocol text: Antagonist activity at glucocorticoid receptor expressed in human A549 cells assessed as inhibition of corticoid-induced transcription by glucocorticoid response element-linked luciferase reporter gene assay
Measured property: pIC50
// field semantics: pIC50 = negative decimal log of concentration (mol/L)

Problem: Looking for the measured pIC50 of CC#C[C@]1(O)CC[C@H]2[C@@H]3CCC4=CC(=O)CCC4=C3[C@@H](c3ccc(P(C)(C)=O)cc3)C[C@@]21C , can you help?
Result: 8.00

----------
- Protocol text: Metabolic stability in human microsomes assessed as half life
- Assay type: ADME, Microsome
Measured property: half-life

Problem: Looking for the measured half-life of C=CC[C@]1(O)CC[C@H]2[C@@H]3CCC4=CC(=O)CCC4=C3[C@@H](c3ccc(P(=O)(c4ccccc4)c4ccccc4)cc3)C[C@@]21C , can you help?
Result: > 30 min

// data source = ChEMBL document CHEMBL1139120
